Experiment: yeast display, Sf9 membrane polyspecificity reagent, FACS + sequencing; frameworks hold sequencing errors
ENDPOINT NAME: polyreactivity (PSR sort gate)

Here's what some known entries look like.
1. QVQLVESGGGLVQAGCSLRLSCAASGRISKRYTMGWYRQAPGKERELVAAINSSTSTSYADSVKGRFTISRDNAKNTVYLKMNSRKPEDTAVYYCNARYNYSYDYNYWGQGTQVTVSS | low polyreactivity
2. QVQLVESGGGLVQAGGSLRLSCAASGRIFKSNAMGWYRQAPGKERELVASITASGGRTYYADSVKGRFTISRDNAKNTVYLQMNSLKPEDTAVYYCAAGRPFSKYGYWGQGTQVTVSS | high polyreactivity
3. QVQLVESGGGLVQSGGSLRLSCAASGGTFRSYAMGWYIQAPGKERELVYAIRRSGGSTYYADSVKGRFTISRDNTKNTVYLQMNSLKPEDTAVYYCAARGYNSRRIWKYYYWGQGTQVTVTS | high polyreactivity
4. QVQLVESGGGLVQAGGSLRLSCAASGFTFSINTMGWYRQAPGKERQFVAGISRSGGSTYYADSVKWRFTISRDNAKNTVYLQMNSLKPEDTAVYYCAAGGPYWSRYEYWGQGNQVTVSS | high polyreactivity
5. QVQLVESVGGLVQAGGSLRLSCAASGRIFYNYVMGWYRQAPGKERELVAAISSDGGRTYYADSVKGRFTISRDNAKNTVYLQMNSLKPEDTAVYYCAAEWPYGGNGPGHTYEYWGQGTQVTVSS | high polyreactivity

QVQLVESSGGLVQAGGSLRLSCAASGRIFQAYAMGWYRQAPGKEREMVAAITGGGSTNYADSVKGRFTISRDNAKNTVYLQMNSLKPEDTAVYYCNAVTGTYGWGPQAREQEDYWGQGTQVTVSS has a reported polyreactivity (PSR sort gate) of low polyreactivity

QVQLVESGGGLVQAGGSLRLSCAASGLIFSGYAMGRYRQAPGKERELVAAITWSGGSTYYADSVKGRFTISRDNAKNTVYLQMNSLKPEDTAVYYCNAKFFQISRYGYWGQGTQVTVSS has a reported polyreactivity (PSR sort gate) of high polyreactivity

QVQLVESGGGLVQAGGSLRLSCAASGSTFTGYVLGWYRQAPGKERELVAAITSSVDGTYYADSVKGRFTISRDIAKNTVYLQMNSLKPEDTAVYYCAADLWKGVYPSYDYWGQGTQVTVSS has a reported polyreactivity (PSR sort gate) of low polyreactivity

QVQLVESGGALVQAGGSLRLICAASGSIFGYNAMGWYRPSPGKEREFVASIRDRGGSTYYADSVKGRFTISRDNAKNTLYFQMKSLKQEDTAVYYGDAYWWGVSKRQYGYWGQGTQVTVSS has a reported polyreactivity (PSR sort gate) of high polyreactivity

QDQLVESGGGLVQAGGSLRLSCAASGFTFGWYAMGWYRQAPGKERELVAAITSRGGSTYYPDSVKGRFTISRDNAKNTVYLQMNSLKPEDTAVYYCAALYGWSGYDYWGQGTQVTVSS has a reported polyreactivity (PSR sort gate) of high polyreactivity

----------
Experiment: yeast display, Sf9 membrane polyspecificity reagent, FACS + sequencing; frameworks hold sequencing errors
ENDPOINT NAME: polyreactivity (PSR sort gate)

1) QVQLVESGGGLVQAGGSLRLSCAASGSISPQNVMGWYRQAPGKERELVAAITGGGSTNYADSVKGRFTISRDNAKQTVYLQLNSLKPEDTAVYYCNADYFQDRLDYWGQGTQVTVSS | low polyreactivity
2) QVQLVESGGGLFQSGGSLRLTSAASGSTFAYKAMGWYRQAPGKEREFVAAITIGSTYADSVKGRFTISRDNAKNTVYLQMNSLKPEDTAVYYCAVRRPRRNYNYPYDYWGQGTQVTVSS | low polyreactivity

----------
Experiment: yeast display, Sf9 membrane polyspecificity reagent, FACS + sequencing; frameworks hold sequencing errors
ENDPOINT NAME: polyreactivity (PSR sort gate)

1) QVQLVESGGGLVQAGGILRLSCAASGSIFLYNALGWYRQAPGKERELVAAISKSGGSTYYADSVKGRFTISRDNAKNTVYLQMNSLKPEDTAVYYCAAGYGRLIRYGSDYDYWGQGTQVTVSS | low polyreactivity
2) QVQLVESGGGLVQAGGSLRLSCAASGSISGYYDMGWYRQAPGKEREFVAAISLSTTSTYYADSVKGRFTISRDNAKNTVYLQMNSLKPEDTAVYYCATDIVGPHFDYWGQGTQVTVSS | low polyreactivity
3) QVQLVESGGGLVQAGGSLRLSCAASGSTFKFNAMGWYRQAPGKERELVAAISRGGRTNYADSVKGRFTISRDNAKNTVYLQMNSLKPEDTAVYYCAKDVAGLFHVGALYYYWGQGTQVTVSS | low polyreactivity
4) QVQLVESGGGLVQAGGILRLSCAASGRTFMYYAMGWYRQAPGKDMELVAAIRRGSSTYYADSVKGRFTISRDNAKYSVYLQMNSLKPEDTAVYYCAARGRYRIGQGRYGKRYDYWGHGTQVTVSS | high polyreactivity
5) QVQLVESGGGLVQAGGSLRLSCAASGRTFDYYAMGWYRQAPGKERELVAAITSGGSTYYADSVKGRFTISRDNAKNTDYLQMNSLKPEDTAVYYCAKSWALTRGYGSRYYVYRYDYWGQGTQVTVSS | low polyreactivity

Okay, next one:
QVQLVESGGGLVQAGGSLRLSCAASGRIFTKYAMGWYRQSPGKERELVAAITTSGGSTYYADSVKGRFTISRDNAKNTVYLQMNSLKPEDTAVYYCAARTYHRYDYWGQGTQVTVSS has a reported polyreactivity (PSR sort gate) of high polyreactivity

----------
Assay: yeast display, Sf9 membrane polyspecificity reagent, FACS + sequencing; frameworks hold sequencing errors
ENDPOINT NAME: polyreactivity (PSR sort gate)

Here's what some known entries look like.
1) QVQLVESGGGLVQAGGSLRLSCAASGFIFRIYAMGWYRQAPGKERELVAAITWDGVSTYYADSVKGRFTISRDNAKNTVYLQMNSLKPEDTAVFYCAARKRSYPYYYWGQGTQVNVSS | high polyreactivity
2) QVQRVESGGGLVQAVGRLRLSCAASGSTFYTYTMGWYRPARGKERELVAAITWSGGSTYYADSVKGRFTISRDNAKNTVYLQMNRLKPEDTAVYYCNADQDYQGARPSGMDYWGLGTQVTVSS | low polyreactivity
3) QVQLVESGGGLFQAGGSLRLSCAASGFTFGHNSMGWYRQAPGKERELVAAISYSGGSTYYADSVKGRFTSSRDNAKNTVYLQMNSLKPEDTAVYYCAKRSHTDSVPGVYNEGDFWGQGTQVTVSS | low polyreactivity
4) QVQLVESGGGLVQAGGSLRLSCAASGSIFYSNMGWYRPAPGKEREFVAAISGSGVRTYYADSVKGRFTISRDNAKKTVYLQMNSLKPEDTAVYYCNAGRRQDNRYNYWGQGTQVTVSS | high polyreactivity
5) QVQLVESGGGLVQAGGSLRLSCAASGFILKYYAMGWYRQAPGKERELVAAISWSGGSTYYADSVKGRFTISRDNAKNTVYLQMNSLKPEVTAVYYCNAYYVYNSLGYWGQGTQVTVSS | high polyreactivity
6) QVQLVESGGGLVQAGGSLRLSCAPSGSTFYSYVMGWYRQATGKERELVAVISNDGSTNYADSVKGRFTISRDNAKNTVYLQMNSLKPEDTAVYYCAALKFVRAYRYYYWGQGTQVTVSS | low polyreactivity
7) QVQLVESGGGLVQAGGSLRLSCAASGRTIGLYDMGWYRQAHGKERELVAGITRRGGRTYYADSVKGRFTISRDNAKNSVYLQMNSLKPEDTAVYYCAAGTIYLRHAQSPFDYWGQGTQGTVSS | high polyreactivity
8) QVQLVESGGGLVQAGVSLRLRCASSGFTFRPYAIGWYRQAPGKERELVAAITSGDSTNYADSVKGRFTISRDNEKNTVYLQMNSLKREDTAVYYCAADSTGRPSVSYDYWGQGTQVTVSS | low polyreactivity
9) QVQLVESGGGLVQAGGSLRLSCAASGRILPLYAMGWYRQAPGKERELVADITGSDGSTYYADSVKGRFTISRDNAKNTVYLQMNSLKPEDTAVYYCATDAIGRTPSDPWDYYYWGQGTQVTVSS | low polyreactivity
10) QDQLVESGGGLVQAGGSLRLSCAASGSTFSIYAMGWYRQATGKERELVAAIPYSGGSTYYADSVKGRFTISRDNAKNTVYLQMNSLKPEDTAVYYCAAEVYDSRWWYSGATDDYWGQGTQVTVSS | high polyreactivity

QVQLVDSGGGLVQAVGSLRLSCAASGRTLGAYAMGWYRQAPGKEREFVARITYGGRTFYADSVKGRFTISRDNAKNTVYLQMNSLKPEDTAVYYCATKLPYRWYDYWGQGTQVTVSS has a reported polyreactivity (PSR sort gate) of high polyreactivity

QVHLVESGGGLVQAGGSLRLSCAASGLTFGRNAMGWYRQAPGKERELVAVISRSGGSTYYADSVKGRFTISRDNAQNTVYLQMNSLKPEDTAVYYCAAGAYSYRKYRSYDYWGQGTQVNVSS has a reported polyreactivity (PSR sort gate) of high polyreactivity
